quantity: logP
Give your answer as a number; write no unit.

compound	logP
CC1=NS(=O)(=O)c2cccnc2N1	-0.25
CCCCCCNC(=O)CCC(NS(=O)(=O)c1ccc(C)cc1)C(=O)O (configuration not stated)	0.84
N#Cc1cc(-c2ccncc2)cnc1NCCO	1.17

Give its logP value. Item: COCCNCc1cc2cc(S(N)(=O)=O)sc2s1 0.32

Give its logP value. Item: N#Cc1cc(-c2ccncc2)cnc1Cl 1.74

Give its logP value. Item: Cc1c(Cl)cc(C(C)C)c(Cl)c1Cl 6.2

Give its logP value. Item: CN(C(=O)C(Cl)Cl)c1ccc(O)cc1 1.78

---

logP values, listed per item

Examples with answers:
compound	logP
COc1ccc(Nc2ccnc3cc(Cl)ccc23)cc1	4.94
CCNc1ncc(-c2ccncc2)cc1C#N	2.33
c1ccc(Cn2ccnc2)cc1	1.6

Give its logP value. Item: CCCOC(=O)CCC(=O)OCCC 2.16

Give its logP value. Item: CCCCCCOC(=O)C1=C=CC(=O)NC(=O)N1 1.76

Give its logP value. Item: C=CCOc1ccccc1OCC(CNC(C)C)OC(=O)CC (configuration not stated) 3.76

Give its logP value. Item: CC(C)n1ccc(=O)c(O)c1 -0.02

---

quantity: log10 of solubility (log10 of the value in mM)
# log10 transformed; quantity=solubility; unit=mM

Examples with answers:
compound	log10 of solubility
CCOP(=O)(OCC)SCc1ccccc1	0.58
Oc1ccc(Cl)cc1Cc1ccccc1	-0.17
Cc1cccc(NC(=O)c2ccccc2C(=O)O)c1	0.59
c1ccc2sc(SN(C3CCCCC3)C3CCCCC3)nc2c1	-3.79
OCC(S)CS (stereo not given)	2.85
CCOC(=O)C(C)OC(=O)c1cc(Oc2ccc(C(F)(F)F)cc2Cl)ccc1[N+](=O)[O-] (stereo not given)	-3.66
O=P1(N(CCCl)CCCl)NCCCO1 (stereo not given)	2.18
Cc1ncc(CO)c(C=O)c1O	3.48
Clc1cccc2c(Cl)cccc12	-2.72
N#CCCl	3.12

Give its log10 of solubility value. Item: CN(C)C1CSSC1 1.13

Give its log10 of solubility value. Item: CCC(=O)CC 2.75

Give its log10 of solubility value. Item: c1ccc(N=Nc2ccccc2)cc1 -1.45

Give its log10 of solubility value. Item: CC(=O)/C=C/C1C(C)=CCCC1(C)C (stereo not given) -0.26

Give its log10 of solubility value. Item: Oc1c(O)c(Cl)c(Cl)c(Cl)c1Cl -1.96

---

log10 OH rate constant (cm³/molecule/s) values, listed per item
settings: 25.0 °C

compound	readout.value
OC(C(F)(F)F)C(F)(F)F	-13.6
O=C(O)C(F)(F)F	-12.9
C=COC(C)=O	-10.6
FC(F)Br	-14
CC1CCCO1 (centres undefined)	-10.7
Cc1ccc(C(C)(C)C)cc1	-10.9

Give its log10 OH rate constant (cm³/molecule/s) value. Item: COC(=O)C(C)O (centres undefined) -11.6

Give its log10 OH rate constant (cm³/molecule/s) value. Item: FCC(F)(F)C(F)F -14

Give its log10 OH rate constant (cm³/molecule/s) value. Item: CC(Cl)C(C)Cl (centres undefined) -12

---

details: 22.0 °C
log10 OH rate constant (cm³/molecule/s) values, listed per item

Examples with answers:
CCCCCCl -11.5
COC(F)(F)C(F)(F)C(F)(F)C(F)(F)F -14.1
CC(C)CO[N+](=O)[O-] -12

Give its log10 OH rate constant (cm³/molecule/s) value. Item: Cc1ccc(C(C)C)cc1 -10.8

---

conditions: 20 °C
quantity: log10 solubility (log10 of the value in mM)
# log10 transformed; quantity=solubility; unit=mM

Examples with answers:
compound	log10 solubility
c1ccc(C2CO2)cc1 (stereo not given)	1.40
CCC#CC(C)O (stereo not given)	2.59
CCOS(=O)(=O)OCC	1.66
C=COC	2.41
CC(C)(CO)[N+](=O)[O-]	4.47

Give its log10 solubility value. Item: C/C=C/CCC -0.23

Give its log10 solubility value. Item: Cc1cncc(C)c1 2.49

Give its log10 solubility value. Item: CC(CO)(CO)[N+](=O)[O-] 3.77

Give its log10 solubility value. Item: ClCCOCCCl 2.08

Give its log10 solubility value. Item: O=C(O)Cc1ccccc1 2.09

---

Where a SMILES comes first, the peptide text is derived from it. The star is where a group is joined. NHtBu = CC(C)(C)N*
logP values, listed per item
Give your answer as a number; write no unit.

Give its logP value. Item: COP(N)(=S)Oc1ccccc1C(=O)OC(C)C (configuration not stated) 2.7

Give its logP value. Item: Cc1cc(OCCN(C)C)c(C(C)C)cc1OC1CCCCC1=O (configuration not stated) 3.63

Give its logP value. Item: NC(=O)C=Cc1ccc([N+](=O)[O-])o1 0.65

Give its logP value. Item: CCN(CC)C(=O)CCC(=O)OCn1ncc2c(O)ncnc21 -0.22

Give its logP value. Item: CC(=O)NC(C)C(=O)NC(CC(=O)O)C(=O)NC(C)(C)C (stereo not drawn) (Ac-Ala-Asp-NHtBu; configuration not given here) -0.74

Give its logP value. Item: CCSCCn1cnc2c(=N)n(C)c(=O)[nH]c21 0

Give its logP value. Item: CC(=O)c1c(C)c([N+](=O)[O-])c(C(C)(C)C)c([N+](=O)[O-])c1C 4.3

Give its logP value. Item: OC(Cn1cncn1)(c1ccc(F)cc1)c1ccccc1F (configuration not stated) 2.29

Give its logP value. Item: CS(=O)(=O)c1cccc2ccccc12 1.74

Give its logP value. Item: CCOC1OC2OC3(C)CCC4C(C)C(O)CC(C1C)C24OO3 (configuration not stated) 2.14

Give its logP value. Item: COc1ccc(C(=O)CS(=O)(=O)c2ccc(C)cc2)cc1 2.47

Give its logP value. Item: CCCCCOC(=O)c1ccccc1C(=O)OCCCCC 5.62

---

details: 25.0 °C
quantity: log10 OH rate constant (cm³/molecule/s)

Examples with answers:
compound	readout.value
COCC(C)OC (configuration not stated)	-10.5
COC(F)(F)C(F)F	-12.7
CC(C)c1ccc(NC(=O)N(C)C)cc1	-10.9
CCC(C)(C)OC	-11.3
CC(C)(C)N	-10.9
FC(F)OC(C(F)(F)F)C(F)(F)F	-13.1
FC(F)OC(Cl)C(F)(F)F (configuration not stated)	-13.8
CI	-13.1
FC(Cl)C(F)(F)Cl (configuration not stated)	-13.9
COC(F)(C(F)(F)F)C(F)(F)F	-13.8

Give its log10 OH rate constant (cm³/molecule/s) value. Item: CC(=O)O[C@@H]1CC2CCC1(C)C2(C)C (some centres not stated) -10.9

---

settings: 25 °C
quantity: solubility (mM)
# unit: mM | format: bare number

Examples with answers:
compound	solubility (mM)
CC(C)C(O)C(C)(C)CO (stereo unspecified)	130
CC(CCc1ccccc1)NCC(O)c1ccc(O)c(C(N)=O)c1 (stereo unspecified)	0.356
O=C([O-])CF.[Na+]	11100
CSc1ccccc1	4.07
CC(C)(C)c1cccc(O)c1	13.8
COc1ccccc1OCC(O)CO (stereo unspecified)	252

Give its solubility value. Item: CCCCOC(=O)c1ccc(C(=O)OCCCC)cc1 0.00341

Give its solubility value. Item: CC(Cl)C(Cl)Cl (stereo unspecified) 12.9

Give its solubility value. Item: CCCC(C)Cl (stereo unspecified) 3.2

Give its solubility value. Item: CN(C)c1ccccc1 12

Give its solubility value. Item: Brc1cc(Br)c(OCCOc2c(Br)cc(Br)cc2Br)c(Br)c1 0.000291

Give its solubility value. Item: CCN(N=O)C(N)=O 111

Give its solubility value. Item: Cc1cccc(C)c1 1.52

---

settings: 24 °C
solubility values, listed per item
Output should be the measured figure followed by the unit it is expressed in.

Examples with answers:
molecule	quantity	readout.value
CC1CN(N=O)CC(C)O1 (configuration not stated)	solubility	860 mM
Sc1nc2ccccc2s1	solubility	0.658 mM
CCCCN(CCCC)N=O	solubility	8.03 mM
CCCCN(C)N=O	solubility	200 mM
CCCCN(CC)N=O	solubility	92.2 mM
O=NN1CCCCCC1	solubility	99.9 mM

Please find the next molecule below.
Give its solubility value. Item: COc1cc(C=O)cc(Cl)c1O 1.33 mM

---

details: 30 °C
quantity: log10(solubility) (log10 of the value in mM)
# log10 transformed; quantity=solubility; unit=mM

Examples with answers:
CCOC(=O)CCl 2.20
Ic1ccccc1 0.22
Nc1ccc([N+](=O)[O-])cc1 0.72
BrCBr 1.84
BrC(Br)(Br)Br -0.14

Give its log10(solubility) value. Item: CN(C)C 4.18

Give its log10(solubility) value. Item: COc1ccccc1[N+](=O)[O-] 1.04

Give its log10(solubility) value. Item: ClC(Cl)c1ccccc1 0.19

Give its log10(solubility) value. Item: Cc1ccc([N+](=O)[O-])cc1 0.51

Give its log10(solubility) value. Item: CNC(=O)Oc1cccc(C(C)C)c1 -0.36

Give its log10(solubility) value. Item: Brc1ccccc1 0.45

Give its log10(solubility) value. Item: Fc1ccccc1 1.20

Give its log10(solubility) value. Item: Nc1ccccc1[N+](=O)[O-] 1.03
